Please respond with reported ED50 for every item in the list.
Test system: Rattus norvegicus
Experiment: Antipsychotic activity in sc dosed rat assessed as decrease in spontaneous locomotor activity
Type: functional
One number for each entry, in mg/kg.

# substance_smiles, u, reading
rows = [
    ("CN1CCN(C2=Nc3cc(Cl)ccc3Nc3ccccc32)CC1", "mg/kg", 1.63),
    ("O=C(CCCN1CCC(O)(c2ccc(Cl)cc2)CC1)c1ccc(F)cc1", "mg/kg", 0.07),
    ("Cc1nc2n(c(=O)c1CCN1CCC(c3noc4cc(F)ccc34)CC1)CCCC2", "mg/kg", 1.06),
]

Hi team, please reply with ED50 for each item in this list.
1. FC(F)(F)Cn1cc(-c2ccncc2)c(-c2ccc(OCc3ccc4ccccc4n3)cc2)n1
2. O=C1Cc2cc(CCN3CCN(c4nsc5ccccc45)CC3)c(Cl)cc2N1

// result
1. 1.4
2. 0.71
